Target: 5-HT1A receptor (Rattus norvegicus)
Construct: rat hippocampal membrane homogenate; from tissue; host or cells: rat hippocampus membrane homogenate
Sequence (P19327 whole entry): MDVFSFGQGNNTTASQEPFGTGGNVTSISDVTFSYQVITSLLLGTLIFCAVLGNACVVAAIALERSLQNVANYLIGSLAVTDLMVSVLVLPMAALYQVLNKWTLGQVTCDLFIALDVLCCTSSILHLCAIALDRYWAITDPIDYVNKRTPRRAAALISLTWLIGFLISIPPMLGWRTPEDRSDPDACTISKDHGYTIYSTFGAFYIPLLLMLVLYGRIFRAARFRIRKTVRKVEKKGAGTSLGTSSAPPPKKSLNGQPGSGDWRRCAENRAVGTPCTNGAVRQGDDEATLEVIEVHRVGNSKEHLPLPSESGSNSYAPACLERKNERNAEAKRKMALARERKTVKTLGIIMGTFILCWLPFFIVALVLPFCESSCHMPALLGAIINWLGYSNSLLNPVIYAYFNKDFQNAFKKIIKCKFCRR
Assay: 5-HT1A receptor binding activity in rat hippocampal membrane homogenate
Conditions: 5-HT1A receptor binding, rat hippocampal membrane homogenate; read-out: IC50
Each record is given y if its reported IC50 is strictly below 50 nM. Records at or above 50 nM are given n.

Here's what some known entries look like.
compound | answer_label
CCOC(=O)N[C@H](CN1CCN(c2ccccc2OC)CC1)c1ccccc1 | n
COc1ccccc1N1CCN(CC(C(=O)NC2CCCCCCC2)c2ccccc2)CC1 (stereo not drawn) | y
COc1ccccc1N1CCN(CC(C(=O)N(C)C)c2ccccc2)CC1 (stereo not drawn) | y
COc1ccccc1N1CCN(C[C@@H](NC(=O)C2CCCCC2)c2ccccc2)CC1 | y
COc1ccccc1N1CCN(CC(C(=O)NC2CCCCC2)c2ccccc2)CC1 (stereo not drawn) | y
COc1ccccc1N1CCN(CC(OC(=O)C2CCCCC2)c2ccccc2)CC1 (stereo not drawn) | n
COc1ccccc1N1CCN(CC(C(=O)Nc2ccccc2)c2ccccc2)CC1 (stereo not drawn) | n

Incoming: Threshold test, IC50 < 50 nM: COc1ccccc1N1CCN(CC(OC(=O)Nc2ccccc2)c2ccccc2)CC1 (stereo not drawn)
Outgoing: y
